- Tested system: T1, CRBN, Q96SW2;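 also: pooled lentiviral library of zinc finger degron-EGFP fusions in mCherry-positive Jurkat cells, FACS-sorted after compound exposure, with degron abundance counted by next-generation sequencing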
- T1 chain: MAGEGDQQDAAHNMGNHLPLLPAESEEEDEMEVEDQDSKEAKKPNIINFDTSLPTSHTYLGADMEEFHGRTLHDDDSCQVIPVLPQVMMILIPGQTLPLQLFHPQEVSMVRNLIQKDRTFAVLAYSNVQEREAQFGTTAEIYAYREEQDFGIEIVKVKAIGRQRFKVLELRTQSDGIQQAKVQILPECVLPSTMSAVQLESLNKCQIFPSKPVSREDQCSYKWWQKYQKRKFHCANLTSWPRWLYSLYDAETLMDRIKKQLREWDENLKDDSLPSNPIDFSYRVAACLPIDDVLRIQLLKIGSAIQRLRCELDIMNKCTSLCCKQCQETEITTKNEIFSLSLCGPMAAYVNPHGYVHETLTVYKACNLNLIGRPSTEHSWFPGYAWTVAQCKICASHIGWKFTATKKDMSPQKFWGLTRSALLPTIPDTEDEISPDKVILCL
- Assay procedure: log2 fold change of degron read counts, EGFP-low vs EGFP+ sorted cells (limma voom), compound-induced degradation; higher = more compound-induced degradation of the degron-EGFP fusion; degrons are variants of IKZF1/3 zinc finger 2; compound dose not given here
- Conditions used: Jurkat; 18 h; compound: compound 22 (5-morpholino-thalidomide)
In all, about 8,300 sequences were measured (“log2 fold change of degron read counts, EGFP-low vs EGFP+ sorted cells (limma voom), compound-induced degradation”: median about -1.1, highest 2% from about 3.2 on). Only a selection was taken, and the highest values are over-represented in it overall.
Would you mind labelling by log2 fold change of degron read counts? At or over -1 is Fulfilled, under is Not fulfilled.

The examples below pair each entry with its known result.
LLCEICGFFCTQKGNLLRHIKL [46L_47L_49E_50I_52G_53F_54F_55C_67L_, Q9UKT9]    Fulfilled
FRCSVCGHNFTQKGNLLRHIKL [46F_47R_49S_50V_52G_53H_54N_55F_67L_, Q9UKT9]    Not fulfilled
FFCDQCGAEFTQKGNLLRHIKL [46F_47F_49D_50Q_52G_53A_54E_55F_67L_, Q9UKT9]    Not fulfilled
FCCPICGAPFTQKGNLLRHIKL [46F_47C_49P_50I_52G_53A_54P_55F_67L_, Q9UKT9]    Fulfilled
FWCPICGAEFTQKGNLLRHIKL [46F_47W_49P_50I_52G_53A_54E_55F_67L_, Q9UKT9]    Fulfilled

Incoming: Is the recorded value of log2 fold change of degron read counts equal to or greater than -1 for this sequence? FQCEICGAKFTQKGNLLRHIKL [46F_47Q_49E_50I_52G_53A_54K_55F_67L_, Q9UKT9]
Outgoing: Fulfilled

Incoming: Is the recorded value of log2 fold change of degron read counts equal to or greater than -1 for this sequence? FTCPICGRIFTQKGNLLRHIKL [46F_47T_49P_50I_52G_53R_54I_55F_67L_, Q9UKT9]
Outgoing: Fulfilled

Incoming: Is the recorded value of log2 fold change of degron read counts equal to or greater than -1 for this sequence? FCCPICGADFTQKGNLLRHIKL [46F_47C_49P_50I_52G_53A_54D_55F_67L_, Q9UKT9]
Outgoing: Fulfilled

Incoming: Is the recorded value of log2 fold change of degron read counts equal to or greater than -1 for this sequence? FICNQCGRAFTQKGNLLRHIKL [46F_47I_49N_50Q_52G_53R_54A_55F_67L_, Q9UKT9]
Outgoing: Not fulfilled

Incoming: Is the recorded value of log2 fold change of degron read counts equal to or greater than -1 for this sequence? FTCEQCGAHFTQKGNLLRHIKL [46F_47T_49E_50Q_52G_53A_54H_55F_67L_, Q9UKT9]
Outgoing: Not fulfilled

Incoming: Is the recorded value of log2 fold change of degron read counts equal to or greater than -1 for this sequence? FDCPICGAPFTQKGNLLRHIKL [46F_47D_49P_50I_52G_53A_54P_55F_67L_, Q9UKT9]
Outgoing: Fulfilled

Incoming: Is the recorded value of log2 fold change of degron read counts equal to or greater than -1 for this sequence? FSCDVCGAMFTQKGNLLRHIKL [46F_47S_49D_50V_52G_53A_54M_55F_67L_, Q9UKT9]
Outgoing: Fulfilled

Incoming: Is the recorded value of log2 fold change of degron read counts equal to or greater than -1 for this sequence? FECEICGAKFTQKGNLLRHIKL [46F_47E_49E_50I_52G_53A_54K_55F_67L_, Q9UKT9]
Outgoing: Not fulfilled

Incoming: Is the recorded value of log2 fold change of degron read counts equal to or greater than -1 for this sequence? LKCNQCGFQCTQKGNLLRHIKL [46L_47K_49N_50Q_52G_53F_54Q_55C_67L_, Q9UKT9]
Outgoing: Not fulfilled

Incoming: Is the recorded value of log2 fold change of degron read counts equal to or greater than -1 for this sequence? FRCPVCGAVFTQKGNLLRHIKL [46F_47R_49P_50V_52G_53A_54V_55F_67L_, Q9UKT9]
Outgoing: Fulfilled

Incoming: Is the recorded value of log2 fold change of degron read counts equal to or greater than -1 for this sequence? FGCPICGRIFTQKGNLLRHIKL [46F_47G_49P_50I_52G_53R_54I_55F_67L_, Q9UKT9]
Outgoing: Fulfilled

Incoming: Is the recorded value of log2 fold change of degron read counts equal to or greater than -1 for this sequence? FHCNQCGAVFTQKGNLLRHIKL [46F_47H_49N_50Q_52G_53A_54V_55F_67L_, Q9UKT9]
Outgoing: Not fulfilled

Incoming: Is the recorded value of log2 fold change of degron read counts equal to or greater than -1 for this sequence? FYCPICGRSFTQKGNLLRHIKL [46F_47Y_49P_50I_52G_53R_54S_55F_67L_, Q9UKT9]
Outgoing: Not fulfilled

Incoming: Is the recorded value of log2 fold change of degron read counts equal to or greater than -1 for this sequence? FHCEICGHNFTQKGNLLRHIKL [46F_47H_49E_50I_52G_53H_54N_55F_67L_, Q9UKT9]
Outgoing: Not fulfilled

Incoming: Is the recorded value of log2 fold change of degron read counts equal to or greater than -1 for this sequence? FTCNQCGHIFTQKGNLLRHIKL [46F_47T_49N_50Q_52G_53H_54I_55F_67L_, Q9UKT9]
Outgoing: Not fulfilled

Incoming: Is the recorded value of log2 fold change of degron read counts equal to or greater than -1 for this sequence? FVCNQCGHYFTQKGNLLRHIKL [46F_47V_49N_50Q_52G_53H_54Y_55F_67L_, Q9UKT9]
Outgoing: Not fulfilled

Incoming: Is the recorded value of log2 fold change of degron read counts equal to or greater than -1 for this sequence? FSCEICGHWFTQKGNLLRHIKL [46F_47S_49E_50I_52G_53H_54W_55F_67L_, Q9UKT9]
Outgoing: Not fulfilled

Incoming: Is the recorded value of log2 fold change of degron read counts equal to or greater than -1 for this sequence? FCCNICGAPFTQKGNLLRHIKL [46F_47C_49N_50I_52G_53A_54P_55F_67L_, Q9UKT9]
Outgoing: Fulfilled
